biological target: SAE (Homo sapiens, UniProt Q9UBT2); construct: endogenous in cells; host or cells: HCT116; experiment: SUMO IF: in vitro inhibitory activity assay against SAE in HCT116 cells (SUMO-2/3 immunofluorescence); type: cell-based; conditions: class symbols, 6 h at 37° C.
Sequence (Q9UBT2 whole entry): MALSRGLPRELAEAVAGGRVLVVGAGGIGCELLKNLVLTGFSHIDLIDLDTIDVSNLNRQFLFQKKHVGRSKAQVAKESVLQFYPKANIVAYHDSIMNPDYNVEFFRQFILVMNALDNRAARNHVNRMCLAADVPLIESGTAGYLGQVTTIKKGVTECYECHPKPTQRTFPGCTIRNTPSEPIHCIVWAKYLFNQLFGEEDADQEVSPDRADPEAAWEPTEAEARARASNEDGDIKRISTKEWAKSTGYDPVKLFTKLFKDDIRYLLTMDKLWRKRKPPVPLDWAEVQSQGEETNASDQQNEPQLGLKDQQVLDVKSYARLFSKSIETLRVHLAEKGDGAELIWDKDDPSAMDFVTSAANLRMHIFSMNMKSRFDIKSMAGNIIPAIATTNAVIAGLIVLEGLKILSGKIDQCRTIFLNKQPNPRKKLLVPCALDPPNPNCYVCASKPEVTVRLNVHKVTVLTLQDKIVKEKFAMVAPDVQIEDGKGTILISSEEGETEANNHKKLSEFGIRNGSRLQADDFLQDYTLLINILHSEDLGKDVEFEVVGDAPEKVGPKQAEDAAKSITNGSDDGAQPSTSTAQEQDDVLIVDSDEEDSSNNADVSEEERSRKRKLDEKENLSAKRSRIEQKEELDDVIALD
Sequence (Q9UBE0 whole entry, further chain): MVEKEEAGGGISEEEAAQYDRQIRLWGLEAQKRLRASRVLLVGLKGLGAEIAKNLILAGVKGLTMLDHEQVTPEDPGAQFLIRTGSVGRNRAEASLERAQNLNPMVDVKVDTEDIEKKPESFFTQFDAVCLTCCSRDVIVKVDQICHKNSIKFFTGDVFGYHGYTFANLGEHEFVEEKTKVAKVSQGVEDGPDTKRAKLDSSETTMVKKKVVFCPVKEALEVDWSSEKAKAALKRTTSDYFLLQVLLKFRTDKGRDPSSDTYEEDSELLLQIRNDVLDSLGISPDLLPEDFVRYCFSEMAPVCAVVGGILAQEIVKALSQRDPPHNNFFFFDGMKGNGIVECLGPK
measurement_kind: IC50

• CCc1sc(C(=O)c2cncnc2N[C@H]2C[C@H](O)[C@@H](COS(N)(=O)=O)[C@@H]2F)cc1C1NCCc2ccc(Cl)cc21 (some centres unmarked) = 50 to 200 nM
• CC1(C)Cc2ccc(Cl)cc2C2(CCCc3sc(C(=O)c4cncnc4N[C@H]4C[C@H](O)[C@@H](COS(N)(=O)=O)[C@@H]4F)cc32)N1 (some centres unmarked) = 50 to 200 nM
• NS(=O)(=O)OC[C@H]1[C@H](F)[C@@H](Nc2ncncc2C(=O)c2cc3c(s2)CCCC32NCCc3cc(Cl)c(Cl)cc32)C[C@@H]1O (some centres unmarked) = 50 to 200 nM
• N#Cc1ccc2c(c1)[C@]1(CCc3sc(C(=O)c4cncnc4N[C@H]4C[C@H](O)[C@@H](COS(N)(=O)=O)[C@@H]4F)cc31)OCC2 = > 200 nM
• CCN1Cc2sc(C(=O)c3cncnc3N[C@H]3C[C@H](O)[C@@H](COS(N)(=O)=O)[C@@H]3F)cc2[C@]2(C1)OCCc1ccc(Cl)cc12 = ≤ 50 nM
• Cc1sc(C(=O)c2cncnc2N[C@H]2C[C@H](O)[C@@H](CCS(N)(=O)=O)[C@@H]2F)cc1C1NCCc2ccc(Cl)cc21 (some centres unmarked) = > 200 nM
• NS(=O)(=O)OC[C@H]1[C@H](F)[C@@H](Nc2ncncc2C(=O)c2cc3c(s2)C=CC32OCCc3ccccc32)C[C@@H]1O (some centres unmarked) = 50 to 200 nM
• CC1=C[C@]2(NCCc3ccc(Cl)cc32)c2cc(C(=O)c3cncnc3N[C@H]3C[C@H](O)[C@@H](COS(N)(=O)=O)[C@@H]3F)sc21 = ≤ 50 nM
